experiment: in vitro; type: cell-based; settings: African green monkey (Vero) and human (A549), Vero cells (CC50) and A549 cells (IC50); CC50 Vero / IC50 A549; read-out: SI (selective index = CC50/IC50)
// reported selectivity ratio at 48 h per item
Please state the value as a number alone, without comment.

Sample answers from the record:
Summary for this molecule, CC1=CCC[C@@H]2[C@@](C)(CCc3ccoc3)[C@@H](C)C[C@@H](O)[C@]12C [Compound 6, 6-hydroxyannonene] : selectivity ratio at 48 h is 1.66

Summary for this molecule, CC1=CCC[C@H]2C1(C(=O)O)[C@H](O)C[C@H](C)[C@]2(C)CCc1ccoc1 (stereo partly drawn) [Compound 3, kerlinic acid] : selectivity ratio at 48 h is 2.74

Summary for this molecule, COC(=O)[C@@]12C(C)=CCC[C@@H]1[C@@](C)(CCc1ccoc1)[C@@H](C)C[C@H]2O [Compound 4, kerlinic acid methyl ester] : selectivity ratio at 48 h is 4.77

New cases:
Summary for this molecule, C[C@H]1C[C@@H](O)[C@]23C(=CCC[C@@H]2[C@@]1(C)CCc1ccoc1)CO[C@H]3O [Compound 1, raspailol] : selectivity ratio at 48 h is 6.14

* * *

assay: in vitro; type: cell-based; settings: African green monkey
// reported CC50 at 48 h per item
Give the value in µM but do not write µM after it.

Sample answers from the record:
Summary for this molecule, CC1=CCC[C@H]2C1(C(=O)O)[C@H](O)C[C@H](C)[C@]2(C)CCc1ccoc1 (stereo partly drawn) [Compound 3, kerlinic acid] : CC50 at 48 h is 182

Summary for this molecule, COC(=O)[C@@]12C(C)=CCC[C@@H]1[C@@](C)(CCc1ccoc1)[C@@H](C)C[C@H]2O [Compound 4, kerlinic acid methyl ester] : CC50 at 48 h is 98.4

Summary for this molecule, C[C@H]1C[C@@H](O)[C@]23C(=CCC[C@@H]2[C@@]1(C)CCc1ccoc1)CO[C@H]3O [Compound 1, raspailol] : CC50 at 48 h is 148

Now for a further molecule.
Summary for this molecule, CC1=CCC[C@@H]2[C@@](C)(CCc3ccoc3)[C@@H](C)C[C@@H](O)[C@]12C [Compound 6, 6-hydroxyannonene] : CC50 at 48 h is 40.8

* * *

test system: Vero cell line; experiment: in vitro; assay type: cell-based; settings: African green monkey, 48 h
Parameter: CC50

Summary for this compound, C=C1C(C)=CCC[C@@H]1[C@@](C)(CCc1ccoc1)[C@@H](C)CC(=O)OC : CC50 is > 250 µM
